Hey, just so you know, these numbers are from ChEMBL document CHEMBL1142960.

ASSAY_NAME: Toxicity in ip dosed CD1 nude mouse in sodium acetate
Type: organism-based
CONDITION_SET: in vivo
OUTCOME_MEASURE: MTD (µmol/kg)

- SUBSTANCE_SMILES: "O=C(NCCN1CCOCC1)c1cc(N(CCCl)CCCl)c([N+](=O)[O-])cc1[N+](=O)[O-]"
  EXPERIMENTAL_VALUE: 300

* * *

ASSAY_NAME: Antiproliferative activity against human Skov3 NTRneo cells after 18 hrs
Assay type: functional, cell-based
CONDITION_SET: SK-OV-3, 18 h
pIC50: −log10 of the molar value.
OUTCOME_MEASURE: pIC50

- MOLECULE: "CC(O)CNC(=O)c1cc(N(CCCl)CCCl)c([N+](=O)[O-])cc1[N+](=O)[O-] (centres undefined)"
  COMPARISON_SIGN: "="
  EXPERIMENTAL_VALUE: 5.02
- MOLECULE: "O=C(NCCCN1CCOCC1)c1cc(N(CCBr)CCBr)c([N+](=O)[O-])cc1[N+](=O)[O-]"
  COMPARISON_SIGN: "="
  EXPERIMENTAL_VALUE: 4.47
- MOLECULE: "CS(=O)(=O)c1cc([N+](=O)[O-])c(N(CCCl)CCCl)cc1C(=O)NCC(O)CO (centres undefined)"
  COMPARISON_SIGN: "="
  EXPERIMENTAL_VALUE: 3.13
- MOLECULE: "CS(=O)(=O)OCCN(CCOS(C)(=O)=O)c1cc(C(=O)NCC(O)CO)c([N+](=O)[O-])cc1[N+](=O)[O-] (centres undefined)"
  COMPARISON_SIGN: "="
  EXPERIMENTAL_VALUE: 5.00
- MOLECULE: "NC(=O)c1cc(N(CCOS(N)(=O)=O)CCOS(N)(=O)=O)c([N+](=O)[O-])cc1[N+](=O)[O-]"
  COMPARISON_SIGN: "="
  EXPERIMENTAL_VALUE: 5.41
- MOLECULE: "CS(=O)(=O)c1cc([N+](=O)[O-])c(C(N)=O)cc1N(CCCl)CCCl"
  COMPARISON_SIGN: "="
  EXPERIMENTAL_VALUE: 4.82
- MOLECULE: "O=C(NC(CO)(CO)CO)c1cc(N(CCCl)CCCl)c([N+](=O)[O-])cc1[N+](=O)[O-]"
  COMPARISON_SIGN: "="
  EXPERIMENTAL_VALUE: 5.38
- MOLECULE: "CS(=O)(=O)OCCN(CCBr)c1cc(C(=O)NCCO)c([N+](=O)[O-])cc1[N+](=O)[O-]"
  COMPARISON_SIGN: "="
  EXPERIMENTAL_VALUE: 6.21
- MOLECULE: "CS(=O)(=O)c1cc([N+](=O)[O-])c(N(CCCl)CCCl)cc1C(N)=O"
  COMPARISON_SIGN: "<"
  EXPERIMENTAL_VALUE: 4.30
